Provenance of the data: the supplement of paper PMC9732359

Test: protein stability index of a GFP-peptide fusion (yeast GPS) (PSI 1-4); higher = more stable; sorted into four equal gates, so the index is relative within each strain
Details: ubr1∆
Decide by protein stability index: equal to or exceeding 3 means fulfilled, less means not fulfilled.

These solved cases illustrate the format of a correct answer.
[[record]]
chain = "SFELKEEDISDLWNNFG [RRP6]"
assigned_class = "fulfilled"

[[record]]
chain = "KHGAVHMSTYLKIYKVG [RPL21B]"
assigned_class = "not fulfilled"

[[record]]
chain = "INHKINNKITQLIAKNV [SIR3]"
assigned_class = "not fulfilled"

[[record]]
chain = "DESDTISFRSNLLKNFI [SNF6]"
assigned_class = "not fulfilled"

[[record]]
chain = "ISPKIWCAGAGTAADTE [PUP1]"
assigned_class = "not fulfilled"


Okay, now this sequence:
INPUT: Given the entry MVKNVKPSSPPDVKSLV [SIR4] , answer whether its protein stability index meets or surpasses 3.
OUTPUT: fulfilled
